Molecular target: Beta-2 adrenergic receptor (Homo sapiens, UniProt P07550)
Test: Intrinsic activity at human beta2 adrenergic receptor in HEK293 cells assessed as increase in cAMP accumulation after 60 mins by HTRF assay relative to isoprenaline
Assay type: functional, cell-based
Sequence (P07550 whole entry, looked up): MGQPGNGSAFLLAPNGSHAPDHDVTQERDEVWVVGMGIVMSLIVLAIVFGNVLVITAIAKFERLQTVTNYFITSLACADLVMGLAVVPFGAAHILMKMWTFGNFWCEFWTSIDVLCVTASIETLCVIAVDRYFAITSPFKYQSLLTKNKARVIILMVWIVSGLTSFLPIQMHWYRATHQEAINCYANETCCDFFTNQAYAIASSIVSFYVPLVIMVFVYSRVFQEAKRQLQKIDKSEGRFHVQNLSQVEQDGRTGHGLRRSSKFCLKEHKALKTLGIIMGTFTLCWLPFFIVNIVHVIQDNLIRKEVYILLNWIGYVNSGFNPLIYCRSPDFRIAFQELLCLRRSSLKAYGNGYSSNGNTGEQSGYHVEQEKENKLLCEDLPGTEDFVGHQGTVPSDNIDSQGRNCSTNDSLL
Please mark Satisfied if the recorded Intrinsic activity is equal to or greater than 50%, and Not satisfied if it falls below.

MOLECULE: O=c1ccc2c(C(CO)NCCc3ccccc3)ccc(O)c2[nH]1 (stereo unspecified)
LABEL_CLASS: Satisfied
--
MOLECULE: COc1cccc(CCNC(CO)c2ccc(O)c3[nH]c(=O)ccc23)c1 (stereo unspecified)
LABEL_CLASS: Satisfied
--
MOLECULE: O=c1ccc2c(C(CO)NCCCc3ccccc3)ccc(O)c2[nH]1 (stereo unspecified)
LABEL_CLASS: Satisfied
--
MOLECULE: O=c1ccc2c(C(CO)NCCc3ccccc3O)ccc(O)c2[nH]1 (stereo unspecified)
LABEL_CLASS: Satisfied
--
MOLECULE: O=c1ccc2c(C(CO)NCCc3ccc(O)cc3)ccc(O)c2[nH]1 (stereo unspecified)
LABEL_CLASS: Not satisfied

----------
Quick reference for half-life at 10 µM among some molecules
Assay: Half life in human liver microsomes at 10 uM by LC/MS/MS analysis
Assay type: ADME, microsome

MOLECULE: CC(C)NCC(O)c1ccc(O)c(O)c1 (configuration not stated) [ISOPROTERENOL]
half-life at 10 µM (h): 0.205
//
MOLECULE: O=c1ccc2c([C@@H](CO)NCCc3ccc(O)cc3)ccc(O)c2[nH]1
half-life at 10 µM (h): 1.81

----------
Molecular target: UniProt:P07550
Experiment: Agonist activity at human beta2 adrenergic receptor expressed in HEK293 cells assessed as increase in cAMP accumulation after 60 mins by HTRF assay
Format: functional, cell-based
Conditions: read-out: EC50
Sequence (P07550 whole entry): as the sequence (P07550 whole entry, looked up) above
pEC50: −log10 of the molar value.
Reported pEC50 is given for each of the following molecules.
REPORTED_ENDPOINT: pEC50

COMPOUND_STRING: O=c1ccc2c([C@@H](CO)NCCc3ccc(O)cc3)ccc(O)c2[nH]1
REPORTED_ENDPOINT: pEC50
NUMBER: 8.90

COMPOUND_STRING: O=c1ccc2c([C@H](CO)NCCc3ccc(O)cc3)ccc(O)c2[nH]1
REPORTED_ENDPOINT: pEC50
NUMBER: 6.48

----------
Assay: Apparent permeability from apical to basolateral side in human Caco2 cells at 2 uM after 2 hrs by LC/MS/MS analysis
Assay type: ADME, cell-based
Details: Caco-2

COMPOUND_STRING: O=c1ccc2c([C@@H](CO)NCCc3ccc(O)cc3)ccc(O)c2[nH]1
READOUT_UNITS: ×10⁻⁶ cm/s
Papp A→B at 2 h, 2 µM: 0.43

----------
Collected EC50 values appear next to each entry.
Molecular target: Beta-1 adrenergic receptor (Homo sapiens)
Sequence (P08588 whole entry): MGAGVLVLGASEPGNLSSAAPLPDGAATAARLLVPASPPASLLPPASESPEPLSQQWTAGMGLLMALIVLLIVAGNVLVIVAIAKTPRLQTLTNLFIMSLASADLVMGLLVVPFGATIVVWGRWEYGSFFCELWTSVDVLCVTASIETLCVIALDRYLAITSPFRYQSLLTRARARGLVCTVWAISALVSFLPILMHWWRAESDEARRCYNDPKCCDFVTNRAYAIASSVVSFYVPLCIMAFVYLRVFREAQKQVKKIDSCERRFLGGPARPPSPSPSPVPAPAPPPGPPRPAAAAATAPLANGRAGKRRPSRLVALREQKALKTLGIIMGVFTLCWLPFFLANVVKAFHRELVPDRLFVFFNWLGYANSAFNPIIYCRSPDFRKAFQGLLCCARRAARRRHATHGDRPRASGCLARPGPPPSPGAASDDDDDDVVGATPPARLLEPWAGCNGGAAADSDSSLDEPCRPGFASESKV
Experiment: Agonist activity at human beta1 adrenergic receptor expressed in HEK293 cells assessed as increase in cAMP accumulation after 60 mins by HTRF assay

COMPOUND: O=c1ccc2c(C(CO)NCCCCc3ccccc3)ccc(O)c2[nH]1 (stereo not given)
EXPERIMENTAL_TARGET: Beta-1 adrenergic receptor (Homo sapiens)
CENSORING_SIGN: >
EC50 [µM]: 10
//
COMPOUND: O=c1ccc2c(C(CO)NCCc3ccccc3O)ccc(O)c2[nH]1 (stereo not given)
EXPERIMENTAL_TARGET: Beta-1 adrenergic receptor (Homo sapiens)
CENSORING_SIGN: >
EC50 [µM]: 10
//
COMPOUND: O=c1ccc2c(C(CO)NCCCCCCOCCCCc3ccccc3)ccc(O)c2[nH]1 (stereo not given)
EXPERIMENTAL_TARGET: Beta-1 adrenergic receptor (Homo sapiens)
CENSORING_SIGN: >
EC50 [µM]: 10
//
COMPOUND: O=c1ccc2c(C(CO)NCCCc3ccccc3)ccc(O)c2[nH]1 (stereo not given)
EXPERIMENTAL_TARGET: Beta-1 adrenergic receptor (Homo sapiens)
CENSORING_SIGN: =
EC50 [µM]: 0.832
//
COMPOUND: O=c1ccc2c(C(CO)NCCc3ccc(Cl)cc3)ccc(O)c2[nH]1 (stereo not given)
EXPERIMENTAL_TARGET: Beta-1 adrenergic receptor (Homo sapiens)
CENSORING_SIGN: =
EC50 [µM]: 1.58

These entries and their values trace back to ChEMBL document CHEMBL4270519.
